# TEST_SYSTEM: Recombinant human c-KIT kinase (Homo sapiens (Human), UniProt P10721)
# Sequence (P10721 26-976): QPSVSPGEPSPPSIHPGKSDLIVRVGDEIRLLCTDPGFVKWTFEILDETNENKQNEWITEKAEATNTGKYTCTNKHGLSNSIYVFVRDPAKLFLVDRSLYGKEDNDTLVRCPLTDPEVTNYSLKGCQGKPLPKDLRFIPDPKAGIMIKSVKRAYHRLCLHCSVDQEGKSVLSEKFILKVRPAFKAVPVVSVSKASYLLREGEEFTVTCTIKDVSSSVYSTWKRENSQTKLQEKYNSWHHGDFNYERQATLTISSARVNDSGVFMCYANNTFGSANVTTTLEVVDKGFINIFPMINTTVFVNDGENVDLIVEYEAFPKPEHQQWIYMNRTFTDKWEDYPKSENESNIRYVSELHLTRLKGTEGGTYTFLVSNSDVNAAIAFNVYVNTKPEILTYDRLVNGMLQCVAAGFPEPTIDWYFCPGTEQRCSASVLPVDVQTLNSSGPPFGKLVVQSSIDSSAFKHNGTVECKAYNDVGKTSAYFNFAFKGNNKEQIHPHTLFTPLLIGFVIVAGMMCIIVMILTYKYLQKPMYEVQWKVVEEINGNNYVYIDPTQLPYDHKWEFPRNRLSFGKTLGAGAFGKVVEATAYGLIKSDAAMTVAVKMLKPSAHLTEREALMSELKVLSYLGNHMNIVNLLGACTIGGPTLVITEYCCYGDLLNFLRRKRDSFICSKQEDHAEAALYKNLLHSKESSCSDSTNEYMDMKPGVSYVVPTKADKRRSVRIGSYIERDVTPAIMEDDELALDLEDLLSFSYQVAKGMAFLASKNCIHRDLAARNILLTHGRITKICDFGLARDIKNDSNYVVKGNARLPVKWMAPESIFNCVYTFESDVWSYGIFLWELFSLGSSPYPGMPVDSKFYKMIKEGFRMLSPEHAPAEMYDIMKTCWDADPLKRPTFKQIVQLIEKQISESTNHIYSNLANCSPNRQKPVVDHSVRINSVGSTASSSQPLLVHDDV
# ASSAY: c-KIT kinase chemiluminescence assay (ADP-Glo)
# EXPERIMENTAL_SETUP: ATP 50 μM
Recorded IC50, one value per entry.

Answered cases to consult:
smiles_string=Cc1ccc(-c2noc([C@H]3C[C@@H](OC(C)C)C3)n2)cc1NC(=O)c1cnn2ccc(N3CC4(CN(CC(F)(F)F)C4)C3)cc12 observation_type=IC50 observed_value="100 to 1000 nM"
smiles_string=COc1ccccc1-c1ncc(C(=O)Nc2cc(-c3noc([C@H]4C[C@@H]4F)n3)ccc2C)[nH]1 observation_type=IC50 observed_value="> 1000 nM"
smiles_string=Cc1ccc(-c2noc([C@H]3C[C@@H]3F)n2)cc1NC(=O)c1cnc(-c2ccc3cn(C)nc3c2)o1 observation_type=IC50 observed_value="100 to 1000 nM"
smiles_string=Cc1ccc(-c2noc([C@H]3C[C@@H]3F)n2)cc1NC(=O)c1cnn2ccc(N3CC4(CN(CC(F)F)C4)C3)cc12 observation_type=IC50 observed_value="< 100 nM"
smiles_string=Cc1ccc(-c2noc([C@H]3C[C@@H]3F)n2)cc1NC(=O)c1cnn2cc(-c3cccnc3)ccc12 observation_type=IC50 observed_value="< 100 nM"
smiles_string=Cc1ccc(-c2noc([C@H]3C[C@@H]3F)n2)cc1NC(=O)c1cnn2ccc(N3CCC4(CC3)CC(C)(O)C4)cc12 observation_type=IC50 observed_value="< 100 nM"
smiles_string=Cc1ncc(-c2nnn(C(C)C)n2)cc1NC(=O)c1cnn2ccc(N3CC4(C3)CC(O)(C(F)F)C4)cc12 observation_type=IC50 observed_value="> 1000 nM"
smiles_string=Cc1ccc(-c2noc([C@H]3C[C@@H]3F)n2)cc1NC(=O)c1cnc(-c2ccc3[nH]c(=O)oc3c2)o1 observation_type=IC50 observed_value="100 to 1000 nM"

Challenge: Entry Cc1sc(-c2nccc(C3CC3)n2)cc1NC(=O)c1cnn2ccc(N3CC4(C3)CC(O)(C(F)F)C4)cc12 has what IC50?
Response given: 100 to 1000 nM

Challenge: Entry Cc1sc(-c2noc([C@H]3C[C@@H]3F)n2)cc1NC(=O)c1cnn2ccc(N3CC4(COC4)C3)cc12 has what IC50?
Response given: 100 to 1000 nM

Challenge: Entry Cc1ccc(-c2noc([C@H]3C[C@@H]3F)n2)cc1NC(=O)c1cnn2ccc(N3CCO[C@@H](C)C3)cc12 has what IC50?
Response given: < 100 nM

Challenge: Entry COC(=O)N1CC(Cc2nc(-c3ccc(C)c(NC(=O)c4cnn5ccc(N6CC7(COC7)C6)cc45)c3)no2)C1 has what IC50?
Response given: 100 to 1000 nM

Challenge: Entry Cc1ccc(-c2cnc(OC(F)F)nc2)cc1NC(=O)c1cnn2ccc(N3CC4(COC4)C3)cc12 has what IC50?
Response given: < 100 nM

Challenge: Entry Cc1ccc(-c2cnc(C3CC3)nc2)cc1NC(=O)c1cnn2ccc(N3CC4(C3)CC(O)(C(F)F)C4)cc12 has what IC50?
Response given: < 100 nM

----------
# Test system: M-07e cells
# ASSAY: M-07e cellular assay (SCF-mediated cell proliferation)
# Assay type: cell-based
# EXPERIMENTAL_SETUP: Homo sapiens, 72 hours, CellTiter Glo
# Description: M-07e cells (Creative Bioarray, CSC-C0249) which endogenously express human c-KIT were used to evaluate the effect of compounds on stem cell factor (SCF)-mediated cell proliferation. […] Twenty-four hours later, three-fold serially diluted test compounds in media containing SCF (at the previously determined EC90) were added to the plated M-07e cells and incubated for an additional 72 hours. […] The EC50 was determined using GraphPad Prism. […]
Recorded EC50, one value per entry.

compound="Cc1ccc(-c2noc([C@H]3C[C@@H]3F)n2)cc1NC(=O)c1cnn2cc(-c3cn(C(F)(F)F)nn3)ccc12 [Example 113]" observation_type=EC50 observed_value="< 100 nM"
compound="Cc1ncc(-c2noc([C@@H]3CN(C(=O)C(C)(F)F)[C@H]3C)n2)cc1NC(=O)c1cnn2ccc(N3CC4(C3)CC(O)(C(F)F)C4)cc12 [Example 281-13]" observation_type=EC50 observed_value="100 to 1000 nM"
compound="Cc1ccc(-c2noc([C@H]3C[C@@H]3F)n2)cc1NC(=O)c1cnn2ccc(NCC3(CO)COC3)cc12 [Example 241-8]" observation_type=EC50 observed_value="< 100 nM"
compound="Cc1ccc(-c2noc([C@H]3C[C@@H]3F)n2)cc1NC(=O)c1cnn2ccc(C3CC3)cc12 [Example 55]" observation_type=EC50 observed_value="100 to 1000 nM"

Challenge: Entry Cc1ccc(-c2noc(N3CC(F)(F)C3)n2)cc1NC(=O)c1cnn2ccc(N3CC4(COC4)C3)cc12 [Example 281-81] has what EC50?
Response given: < 100 nM

Challenge: Entry Cc1ccc(-c2noc([C@H]3C[C@@H](OC(F)(F)F)C3)n2)cc1NC(=O)c1cnn2ccc(N3CC4(C3)CC(O)(C(F)F)C4)cc12 [Example 281-21] has what EC50?
Response given: < 100 nM

Challenge: Entry Cc1ncc(-c2noc(C3CN(C(=O)C4(F)CC4)C3)n2)cc1NC(=O)c1cnn2ccc(N3CC4(C3)CC(O)(C(F)F)C4)cc12 [Example 281-84] has what EC50?
Response given: 100 to 1000 nM

Challenge: Entry Cc1ccc(-c2noc([C@H]3C[C@@H]3F)n2)cc1NC(=O)c1cnn2ccc(-c3cnc(C(F)(F)F)nc3)cc12 [Example 157] has what EC50?
Response given: 100 to 1000 nM

Challenge: Entry Cc1ccc(-c2noc([C@H]3C[C@@H]3F)n2)cc1NC(=O)c1cnn2ccc(NCC3(C(=O)OC(C)(C)C)COC3)cc12 [Example 241-9] has what EC50?
Response given: 100 to 1000 nM

Challenge: Entry Cc1ncc(-c2noc([C@H]3C[C@](O)(C(F)F)C3)n2)cc1NC(=O)c1cnn2ccc(N3CC4(C3)CC(O)(C(F)F)C4)cc12 [Example 281-37] has what EC50?
Response given: 100 to 1000 nM

Challenge: Entry Cc1ccc(-c2noc([C@H]3C[C@@H]3F)n2)cc1NC(=O)c1cnn2ccc(N3CCCC4(COC4)C3)cc12 [Example 201] has what EC50?
Response given: < 100 nM

Challenge: Entry Cc1ccc(-c2noc([C@H]3C[C@@H]3F)n2)cc1NC(=O)c1cnn2ccc(-c3ccc(N)nc3C)cc12 [Example 171-29] has what EC50?
Response given: < 100 nM

Challenge: Entry Cc1ncc(-c2noc([C@H]3C[C@@H](OC(F)(F)F)C3)n2)cc1NC(=O)c1cnn2ccc(N3CC4(C3)CC(O)(C(F)F)C4)cc12 [Example 281-45] has what EC50?
Response given: < 100 nM

Challenge: Entry Cc1sc(-c2noc(C3CN(C(=O)[C@H]4C[C@@H]4F)C3)n2)cc1NC(=O)c1cnn2ccc(N3CC4(COC4)C3)cc12 [Example 281-126] has what EC50?
Response given: > 1000 nM

Challenge: Entry O=C(Nc1cc(-c2noc([C@H]3C[C@@H]3F)n2)ccc1Cl)c1cnn2ccc(N3CC4(C3)CC(O)(C(F)F)C4)cc12 [Example 281-26] has what EC50?
Response given: < 100 nM

Challenge: Entry Cc1ccc(-c2noc([C@H]3C[C@@H]3F)n2)cc1NC(=O)c1cnc(-c2ccc3c(c2)CC(=O)N3)o1 [Example 299] has what EC50?
Response given: < 100 nM
